B1: library; numbered along this chain (parent)
chain: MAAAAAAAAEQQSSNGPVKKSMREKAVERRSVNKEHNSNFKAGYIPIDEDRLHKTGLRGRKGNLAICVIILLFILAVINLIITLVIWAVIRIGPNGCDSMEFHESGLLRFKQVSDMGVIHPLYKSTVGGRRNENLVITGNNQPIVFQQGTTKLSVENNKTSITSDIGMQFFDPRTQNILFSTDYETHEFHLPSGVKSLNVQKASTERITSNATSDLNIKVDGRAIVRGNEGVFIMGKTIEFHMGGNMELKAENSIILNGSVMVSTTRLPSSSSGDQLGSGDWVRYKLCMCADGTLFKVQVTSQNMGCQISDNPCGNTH

Variants of: B1
Method notes: SGCB cell-surface expression functional score (HA stain, bin4 vs bin1, normalised to synonymous) (log10 ratio); higher = more cell-surface SGCB (functional)
For each entry below, report its SGCB cell-surface expression functional score (log10) value.
Answers are plain numbers.

The examples below pair each entry with its known result.
In [3]: df
Out[3]:
   variant_code  test_value
0          I45L       -0.03
1         S105C       -0.21
2         G244R        0.41
3          P17T        0.31
4         K250E        0.06
5         N158I       -0.21
6         G149I       -0.64
7           A6M        0.13
8         S254A        0.25
9           A3L       -0.02

Could you tell me SGCB cell-surface expression functional score (log10) for each of these variants? They are listed below.
1. E185G
2. P173Y

[-0.26, -0.68]

Provide each entry's SGCB cell-surface expression functional score (log10) from the list below.
1. G96V
2. K124C
3. K19Q
4. R284S
5. G43A
6. L277S
7. K41H
8. V89E

1: -1.95; 2: 0.21; 3: -0.12; 4: -0.16; 5: 0.25; 6: -0.88; 7: 0.22; 8: -0.95
